studyTarget: Gonadotropin-releasing hormone receptor (Homo sapiens, UniProt P30968)
Sequence (P30968 whole entry): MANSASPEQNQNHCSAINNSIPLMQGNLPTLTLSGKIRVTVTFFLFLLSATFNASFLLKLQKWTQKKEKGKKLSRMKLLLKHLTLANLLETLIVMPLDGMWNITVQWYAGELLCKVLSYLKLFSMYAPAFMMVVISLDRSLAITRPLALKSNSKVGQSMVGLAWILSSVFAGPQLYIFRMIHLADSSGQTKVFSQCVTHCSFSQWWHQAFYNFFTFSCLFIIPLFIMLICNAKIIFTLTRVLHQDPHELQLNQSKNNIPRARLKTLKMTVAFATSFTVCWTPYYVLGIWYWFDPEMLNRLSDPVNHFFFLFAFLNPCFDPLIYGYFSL
pIC50: −log10 of the molar value.
resultType: pIC50

querySmiles	quantitativeResult
Cc1cc(C)cc(-c2[nH]c3ccccc3c2CCNCCCCc2ccc(O)cc2)c1	6.45
